As shown below, each of these compounds has a reported Ki value.
experimental_target: recombinant human LTA4 hydrolase (rhLTA4H) (Homo sapiens)
assay_name: Recombinant Human LTA4 Hydrolase Assay for LTA4 Hydrolase Inhibitor Activity
details: average of results obtained; LTB4 quantified by enzyme-linked immunoassay

compound: NC(=O)N1CC2CN(Cc3ccc(Oc4nc5ccccc5s4)cc3)CC2C1 (centres unmarked)
experimental_target: recombinant human LTA4 hydrolase (rhLTA4H) (Homo sapiens)
Ki: 3 nM

compound: CC(=O)N[C@@H]1C[C@H]2CC[C@@H](C1)N2Cc1ccc(Oc2nc3ccc(F)cc3s2)cc1
experimental_target: recombinant human LTA4 hydrolase (rhLTA4H) (Homo sapiens)
Ki: 6 nM

compound: CC(=O)N[C@@H]1C[C@H]2CC[C@@H](C1)N2Cc1ccc(Oc2nc3cc(Cl)ccc3s2)cc1
experimental_target: recombinant human LTA4 hydrolase (rhLTA4H) (Homo sapiens)
Ki: 38 nM

compound: CS(=O)(=O)N[C@H]1C[C@H]2CC[C@@H](C1)N2Cc1ccc(Oc2nc3ccccc3s2)cc1
experimental_target: recombinant human LTA4 hydrolase (rhLTA4H) (Homo sapiens)
Ki: 0.2 nM

compound: CC(=O)N(C)[C@H]1C[C@H]2CC[C@@H](C1)N2Cc1ccc(Oc2nc3ccccc3s2)cc1
experimental_target: recombinant human LTA4 hydrolase (rhLTA4H) (Homo sapiens)
Ki: 4 nM

compound: O=C(CO)N1C[C@H]2C[C@@H]1CN2Cc1ccc(Oc2nc3ccccc3s2)cc1
experimental_target: recombinant human LTA4 hydrolase (rhLTA4H) (Homo sapiens)
Ki: 38 nM

compound: COC(=O)CN1CC2CN(Cc3ccc(Oc4nc5ccccc5s4)cc3)CC2C1 (centres unmarked)
experimental_target: recombinant human LTA4 hydrolase (rhLTA4H) (Homo sapiens)
Ki: 57 nM

compound: CC(=O)N1C[C@@H]2C[C@H]1CN2CCc1ccc(Oc2nc3ccccc3s2)cc1
experimental_target: recombinant human LTA4 hydrolase (rhLTA4H) (Homo sapiens)
Ki: 13 nM

----------
experimental_target: recombinant human LTA4 hydrolase (rhLTA4H) (Homo sapiens, UniProt P09960)
Sequence (P09960 whole entry): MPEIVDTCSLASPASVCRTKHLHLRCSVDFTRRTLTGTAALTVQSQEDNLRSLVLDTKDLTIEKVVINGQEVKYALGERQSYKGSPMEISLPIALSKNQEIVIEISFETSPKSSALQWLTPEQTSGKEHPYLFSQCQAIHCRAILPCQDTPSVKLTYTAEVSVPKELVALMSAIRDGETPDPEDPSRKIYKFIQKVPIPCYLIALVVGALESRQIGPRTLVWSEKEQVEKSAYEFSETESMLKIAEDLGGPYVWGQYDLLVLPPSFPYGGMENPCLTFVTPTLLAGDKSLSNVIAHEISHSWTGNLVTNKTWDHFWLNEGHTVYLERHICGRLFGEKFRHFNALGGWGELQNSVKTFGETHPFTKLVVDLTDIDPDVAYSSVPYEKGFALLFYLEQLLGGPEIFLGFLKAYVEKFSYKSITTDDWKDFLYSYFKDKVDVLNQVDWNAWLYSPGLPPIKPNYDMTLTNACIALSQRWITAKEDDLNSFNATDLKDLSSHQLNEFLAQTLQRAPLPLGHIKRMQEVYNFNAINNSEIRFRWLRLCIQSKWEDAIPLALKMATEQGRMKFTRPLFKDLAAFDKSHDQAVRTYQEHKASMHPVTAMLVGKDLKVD
assay_name: Recombinant Human LTA4 Hydrolase Assay for LTA4 Hydrolase Inhibitor Activity
details: average of results obtained; LTB4 quantified by enzyme-linked immunoassay
pKi: −log10 of the molar value. Counter-ions that a name gives are not always drawn.
Please mark t if the recorded pKi is equal to or greater than 7, and f if it falls below.

compound: CC(=O)N[C@H]1C[C@H]2CC[C@@H](C1)N2Cc1ccc(Oc2nc3ccccc3s2)cc1
discrete_label: t

compound: NC(=O)N1C[C@H]2C[C@@H]1CN2CCc1ccc(Oc2nc3cccc(F)c3s2)cc1
discrete_label: t

compound: NC(=O)N1[C@@H]2CC[C@H]1C[C@H](NCc1ccc(Oc3nc4cccc(F)c4s3)cc1)C2
discrete_label: f

compound: NC(=O)N[C@H]1C[C@H]2CC[C@@H](C1)N2CCOc1ccc(Oc2nc3cccc(Cl)c3s2)cc1
discrete_label: f

compound: CC(=O)N1C[C@H]2C[C@@H]1CN2CCOc1ccc(Oc2nc3cccc(F)c3s2)cc1 [Example 249]
discrete_label: t

compound: O=C(CO)N1C[C@@H]2C[C@H]1CN2Cc1ccc(Oc2nc3ccccc3s2)cc1F
discrete_label: t

compound: CC(C)(C)OC(=O)NC1(C(=O)N2C[C@@H]3C[C@H]2CN3Cc2ccc(Oc3nc4ccccc4s3)cc2)CC1
discrete_label: t

compound: NC(=O)N[C@H]1C[C@H]2CC[C@@H](C1)N2Cc1ccc(Oc2nc3ccccc3s2)cc1
discrete_label: t

compound: CC(=O)NC1[C@H]2CN(Cc3ccc(Oc4nc5ccccc5s4)cc3)C[C@@H]12 (stereo partly shown)
discrete_label: t

compound: NC(=O)N1C[C@H]2C[C@@H]1CN2CCc1ccc(Oc2nc3ccc(Cl)cc3s2)cc1
discrete_label: t

compound: O=S(=O)(c1cccs1)N1CC2CN(Cc3ccc(Oc4nc5ccccc5s4)cc3)CC2C1 (stereo not shown)
discrete_label: f

compound: CS(=O)(=O)N1[C@@H]2CC[C@H]1C[C@H](NCc1ccc(Oc3nc4ccc(F)cc4s3)cc1)C2
discrete_label: f

compound: NC(=O)N1C[C@H]2CCN(Cc3ccc(Oc4nc5ccccc5s4)cc3)[C@H]2C1
discrete_label: t

compound: CS(=O)(=O)N1C[C@H]2C[C@@H]1CN2Cc1ccc(Oc2nc3ccccc3s2)cc1
discrete_label: t

compound: NC(=O)N1C[C@H]2C[C@@H]1CN2CCc1ccc(Oc2nc3ccccc3s2)cc1
discrete_label: t

compound: NCC(=O)N1CCC2CN(Cc3ccc(Oc4nc5ccccc5s4)cc3)CC21 (stereo not shown)
discrete_label: t

compound: CS(=O)(=O)N1[C@@H]2CC[C@H]1C[C@H](NCCOc1ccc(Oc3nc4c(F)cccc4s3)cc1)C2 [Example 217]
discrete_label: t

compound: O=C(CO)N1CC2CN(Cc3ccc(Oc4nc5ccccc5s4)cc3)CC2C1 (stereo not shown)
discrete_label: t

compound: c1ccc2sc(Oc3ccc(OCCN4C[C@@H]5C[C@H]4CN5)cc3)nc2c1 [Example 9B, trifluoroacetate]
discrete_label: t

compound: NC(=O)N1C[C@@H]2C[C@H]1CN2Cc1ccc(Oc2nc3ccccc3s2)cc1
discrete_label: t

----------
experimental_target: recombinant human LTA4 hydrolase (rhLTA4H) (Homo sapiens, UniProt P09960)
Construct: made in house; host or cells: Spodoptera frugiperda (Sf-9) cells, baculovirus (pFastBac1)
assay_name: Recombinant Human LTA4 Hydrolase Assay for LTA4 Hydrolase Inhibitor Activity
Format: biochemical
details: average of results obtained; LTB4 quantified by enzyme-linked immunoassay
pKi: −log10 of the molar value.

compound: CC(=O)N1[C@@H]2CC[C@H]1C[C@H](NCCOc1ccc(Oc3nc4ccc(Cl)cc4s3)cc1)C2 [Example 178]
experimental_target: recombinant human LTA4 hydrolase (rhLTA4H) (Homo sapiens, UniProt P09960)
pKi: 6.05
//
compound: O=C(O)CN1CC2CN(Cc3ccc(Oc4nc5ccccc5s4)cc3)CC2C1 (stereo not shown)
experimental_target: recombinant human LTA4 hydrolase (rhLTA4H) (Homo sapiens, UniProt P09960)
pKi: 7.32
//
compound: CC(C)(O)C(=O)N[C@H]1C[C@H]2CC[C@@H](C1)N2Cc1ccc(Oc2nc3ccccc3s2)cc1
experimental_target: recombinant human LTA4 hydrolase (rhLTA4H) (Homo sapiens, UniProt P09960)
pKi: 8.40
//
compound: COCC(=O)N1C[C@H]2C[C@@H]1CN2Cc1ccc(Oc2nc3ccccc3s2)cc1
experimental_target: recombinant human LTA4 hydrolase (rhLTA4H) (Homo sapiens, UniProt P09960)
pKi: 7.89
//
compound: CC(=O)N1C[C@H]2C[C@@H]1CN2Cc1ccc(Oc2nc3c(Cl)cccc3s2)cc1
experimental_target: recombinant human LTA4 hydrolase (rhLTA4H) (Homo sapiens, UniProt P09960)
pKi: 6.38
//
compound: O=S(=O)(c1ccco1)N1CC2CN(Cc3ccc(Oc4nc5ccccc5s4)cc3)CC2C1 (stereo not shown)
experimental_target: recombinant human LTA4 hydrolase (rhLTA4H) (Homo sapiens, UniProt P09960)
pKi: 6.20
//
compound: O=C(c1cccs1)N1CC2CN(Cc3ccc(Oc4nc5ccccc5s4)cc3)CC2C1 (stereo not shown)
experimental_target: recombinant human LTA4 hydrolase (rhLTA4H) (Homo sapiens, UniProt P09960)
pKi: 7.70
//
compound: CC(C)(O)C(=O)N1C[C@@H]2C[C@H]1CN2CCOc1ccc(Oc2nc3ccccc3s2)cc1
experimental_target: recombinant human LTA4 hydrolase (rhLTA4H) (Homo sapiens, UniProt P09960)
pKi: 8.10
//
compound: CS(=O)(=O)N1C[C@@H]2C[C@H]1CN2Cc1ccc(Oc2nc3cc(Cl)ccc3s2)cc1
experimental_target: recombinant human LTA4 hydrolase (rhLTA4H) (Homo sapiens, UniProt P09960)
pKi: 5.96
//
compound: NC(=O)N1CC2CCN(Cc3ccc(Oc4nc5ccccc5s4)cc3)CC2C1 (racemic) [Example 141]
experimental_target: recombinant human LTA4 hydrolase (rhLTA4H) (Homo sapiens, UniProt P09960)
pKi: 7.46
//
compound: O=C(N1C[C@@H]2C[C@H]1CN2CCOc1ccc(Oc2nc3ccccc3s2)cc1)C1(O)CC1
experimental_target: recombinant human LTA4 hydrolase (rhLTA4H) (Homo sapiens, UniProt P09960)
pKi: 9.00
//
compound: O=C(N1CCOCC1)N1CC2CN(Cc3ccc(Oc4nc5ccccc5s4)cc3)CC2C1 (stereo not shown)
experimental_target: recombinant human LTA4 hydrolase (rhLTA4H) (Homo sapiens, UniProt P09960)
pKi: 8.00
//
compound: CC(=O)N[C@H]1C[C@H]2CC[C@@H](C1)N2CCOc1ccc(Oc2nc3cc(F)ccc3s2)cc1
experimental_target: recombinant human LTA4 hydrolase (rhLTA4H) (Homo sapiens, UniProt P09960)
pKi: 7.00
//
compound: CC(=O)N1[C@@H]2CC[C@H]1C[C@@H](N(C)Cc1ccc(Oc3nc4ccccc4s3)cc1)C2
experimental_target: recombinant human LTA4 hydrolase (rhLTA4H) (Homo sapiens, UniProt P09960)
pKi: 6.62
//
compound: Cc1ccc2nc(Oc3ccc(CCN4C5CCC4CN(S(C)(=O)=O)C5)cc3)sc2c1
experimental_target: recombinant human LTA4 hydrolase (rhLTA4H) (Homo sapiens, UniProt P09960)
pKi: 6.27
//
compound: NC(=O)N[C@@H]1C[C@H]2CC[C@@H](C1)N2CCc1ccc(Oc2nc3cc(F)ccc3s2)cc1
experimental_target: recombinant human LTA4 hydrolase (rhLTA4H) (Homo sapiens, UniProt P09960)
pKi: 6.40
